# assay details: in vitro
# protocol conditions: male, human
recorded endpoint: viability at 48 h, 100 µM (%)
Report the figure in % without appending any unit label.

> print(dat)
                                   compound  recorded.number
1  COc1cc([N+](=O)[O-])ccc1OCC(O)CN1CCN(CCO)CC1 (stereo not shown)              101
2  OCCN1CCN(CC(O)COc2cccc(Cl)c2)CC1 (stereo not shown)               99
3  O=[N+]([O-])c1ccc(OCC(O)CN2CCN(CCO)CC2)c(F)c1 (stereo not shown)               92
4  OCCN1CCN(CC(O)COc2ccc(F)cc2)CC1 (stereo not shown)              107
5     NCCCNCCS [WR1065, reference compound]               16

Quick check: viability at 48 h, 100 µM of COc1ccc(OCC(O)CN2CCN(CCO)CC2)c([N+](=O)[O-])c1 (stereo not shown) ?
98

What do you have for O=[N+]([O-])c1cc(OCC(O)CN2CCN(CCO)CC2)ccc1Cl (stereo not shown) ?
102
